Test system: SNB-75
Test: NCI60 five-dose screen
Type: cell-based
Details: Homo sapiens; SNB-75, CNS cancer; read-out: LC50 (the source's name)
Quick rule for you: CC50 under 40 µM gets true, anything else gets false.

{"columns": ["compound", "measured.target", "label.class"],
 "data": [
  ["CCOC(=O)c1ccc(/C=N/NC(=O)c2[nH]c3ccc(Br)cc3c2-c2ccccc2)[nH]1", "SNB-75", "false"],
  ["O=C(N/N=C/c1cc[nH]c1)c1[nH]c2ccc(Br)cc2c1-c1ccccc1", "SNB-75", "true"],
  ["CCOC(=O)c1c[nH]c(/C=N/NC(=O)c2[nH]c3ccc(Br)cc3c2-c2ccccc2)c1", "SNB-75", "true"],
  ["CCOC(=O)c1cc(/C=N/NC(=O)c2[nH]c3ccc(Br)cc3c2-c2ccccc2)c[nH]1", "SNB-75", "false"],
  ["Cc1cc(C)c(/C=N/NC(=O)c2[nH]c3ccc(Br)cc3c2-c2ccccc2)[nH]1", "SNB-75", "false"],
  ["CCc1ccc(/C=N/NC(=O)c2[nH]c3ccc(Br)cc3c2-c2ccccc2)[nH]1", "SNB-75", "false"]
]}

====

System: SN12C
Experiment: NCI60 five-dose screen
Assay type: cell-based
Conditions: Homo sapiens, renal cancer, read-out: LC50 (the source's name)
Quick rule for you: CC50 under 20 µM gets Condition met, anything else gets Condition not met.

{"columns": ["compound", "measured.target", "label.class"],
 "data": [
  ["CCOC(=O)c1cc(/C=N/NC(=O)c2[nH]c3ccc(Br)cc3c2-c2ccccc2)c[nH]1", "SN12C", "Condition not met"],
  ["CCOC(=O)c1c[nH]c(/C=N/NC(=O)c2[nH]c3ccc(Br)cc3c2-c2ccccc2)c1", "SN12C", "Condition not met"],
  ["O=C(N/N=C/c1cc(Br)c[nH]1)c1[nH]c2ccc(Br)cc2c1-c1ccccc1", "SN12C", "Condition met"],
  ["CCc1c[nH]c(/C=N/NC(=O)c2[nH]c3ccc(Br)cc3c2-c2ccccc2)c1", "SN12C", "Condition not met"],
  ["CCOC(=O)c1ccc(/C=N/NC(=O)c2[nH]c3ccc(Br)cc3c2-c2ccccc2)[nH]1", "SN12C", "Condition not met"],
  ["Cc1cc(C)c(/C=N/NC(=O)c2[nH]c3ccc(Br)cc3c2-c2ccccc2)[nH]1", "SN12C", "Condition not met"],
  ["Cc1[nH]c(/C=N/NC(=O)c2[nH]c3ccc(Br)cc3c2-c2ccccc2)c(C)c1[N+](=O)[O-]", "SN12C", "Condition met"],
  ["O=C(N/N=C/c1ccc[nH]1)c1[nH]c2ccc(Br)cc2c1-c1ccccc1", "SN12C", "Condition met"],
  ["O=C(N/N=C/c1cc(Cl)c[nH]1)c1[nH]c2ccc(Br)cc2c1-c1ccccc1", "SN12C", "Condition met"],
  ["Cn1cccc1/C=N/NC(=O)c1[nH]c2ccc(Br)cc2c1-c1ccccc1", "SN12C", "Condition not met"]
]}

====

Test system: DU-145
Test: NCI60 five-dose screen
Type: cell-based
Settings: Homo sapiens; DU-145, prostate cancer; read-out: LC50 (the source's name)
In this section, each of the molecules is paired with its reported CC50.
metric.name: CC50 (µM)

{"columns": ["compound", "quantitative.result"],
 "data": [
  ["CCOC(=O)c1cc(/C=N/NC(=O)c2[nH]c3ccc(Br)cc3c2-c2ccccc2)c[nH]1", 33.4],
  ["O=C(N/N=C/c1cc(Br)c[nH]1)c1[nH]c2ccc(Br)cc2c1-c1ccccc1", 29.7],
  ["O=C(N/N=C/c1ccc[nH]1)c1[nH]c2ccc(Br)cc2c1-c1ccccc1", 33.3],
  ["O=C(N/N=C/c1cc(Br)c(Br)[nH]1)c1[nH]c2ccc(Br)cc2c1-c1ccccc1", 33.9],
  ["O=C(N/N=C/c1ccc([N+](=O)[O-])[nH]1)c1[nH]c2ccc(Br)cc2c1-c1ccccc1", 32.5],
  ["O=C(N/N=C/c1cc(Cl)c[nH]1)c1[nH]c2ccc(Br)cc2c1-c1ccccc1", 27.2]
]}
